# MEASURED TARGET: T1, human IL-10 receptor (hIL-10R alpha and beta chains) on HEK-Blue IL-10 reporter cells (human, UniProt Q13651 22-578; Q08334 20-325)
# T1 sequence 1: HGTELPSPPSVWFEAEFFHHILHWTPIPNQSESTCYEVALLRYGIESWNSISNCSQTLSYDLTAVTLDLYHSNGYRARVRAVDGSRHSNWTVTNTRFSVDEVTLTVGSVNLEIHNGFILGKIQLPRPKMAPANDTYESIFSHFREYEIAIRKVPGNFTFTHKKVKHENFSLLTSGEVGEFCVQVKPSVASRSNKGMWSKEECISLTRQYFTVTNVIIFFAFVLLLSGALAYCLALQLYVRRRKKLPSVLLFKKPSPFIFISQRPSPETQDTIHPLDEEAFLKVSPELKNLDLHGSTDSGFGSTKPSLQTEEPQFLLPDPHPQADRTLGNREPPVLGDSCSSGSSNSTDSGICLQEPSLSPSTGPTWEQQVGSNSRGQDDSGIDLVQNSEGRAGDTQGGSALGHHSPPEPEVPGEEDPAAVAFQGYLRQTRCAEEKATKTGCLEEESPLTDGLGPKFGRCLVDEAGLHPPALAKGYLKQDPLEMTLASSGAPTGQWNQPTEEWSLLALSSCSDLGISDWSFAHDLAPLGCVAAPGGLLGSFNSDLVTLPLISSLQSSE
# T1 sequence 2: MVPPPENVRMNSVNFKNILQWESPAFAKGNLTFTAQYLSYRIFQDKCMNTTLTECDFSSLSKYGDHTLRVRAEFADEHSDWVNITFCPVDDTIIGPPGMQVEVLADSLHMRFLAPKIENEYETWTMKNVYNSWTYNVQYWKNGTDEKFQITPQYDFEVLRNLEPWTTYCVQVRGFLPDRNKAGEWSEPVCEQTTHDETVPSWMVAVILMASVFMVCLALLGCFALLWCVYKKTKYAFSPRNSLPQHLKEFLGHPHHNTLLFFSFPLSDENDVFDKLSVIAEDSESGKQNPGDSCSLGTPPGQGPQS
# ASSAY EXPLANATION: cell-based or functional assay
EXPERIMENTAL READOUT: Abs 630 (100 nM) (Abs 630)

BINDER	VALUE UNIT	MEASURED
IL10R binding molecule of SEQ ID NO: 310 (bispecific antibody) QVQLQESGGGSVQAGGSLRLSCAASGYTYSSGCMGWFRQAPGKEREAVAAINSDGSTSYADSVKGRFTISKDNAKNTLYLQMNSLKPEDTAMYYCAAEPYCSGGYPRWSVAEFGYWGQGTQVTVSSGGGSQVQLQESGGGSVQAGGSLRLSCGASGYTYSSYCMGWFRQVPGKEREGVAVIDSDGSTSYADSVKGRFTISKDNGKNTLYLQMNSLKPEDTAMYYCAADLGHYRPPCGVLYLGMDYWGKGTQVTVSSASHHHHHH	Abs 630	0.44
IL10R binding molecule of SEQ ID NO: 352 (bispecific antibody) QVQLQESGGGSVQTGGSLRLSCAASGYTYLRGCMGWFRQAPGKEREGVAVMDVVGDRRSYIDSVKGRFTISRDNAANSVYLQMDNLKPEDTAMYYCTAGPNCVGWRSGLDYWGQGTQVTVSSGGGSQVQLQESGGGSVQAGGSLRLSCGASGYTYSSYCMGWFRQVPGKEREGVAVIDSDGSTSYADSVKGRFTISKDNGKNTLYLQMNSLKPEDTAMYYCAADLGHYRPPCGVLYLGMDYWGKGTQVTVSSASHHHHHH	Abs 630	0.65
IL10R binding molecule of SEQ ID NO: 289 (bispecific antibody) QVQLQESGGGSVQAGGSLRLSCTVSGYTYSSNCMGWFRQAPGKEREGVATIYTGGGNTYYADSVKGRFTISQDNAKNTVYLQMNNLKPEDTAMYYCAAEPLSRVYGGSCPTPTFDYWGQGTQVTVSSGGGSQVQLQESGGGSVQAGGSLRLSCAASGYSYSSYCMGWFRQAPGKEREGVATIDSDGMTRYADSVKGRFTISKDNAKNTLYLQMNSLKPEDTAMYYCAAPLYDCDSGAVGRNPPYWGQGTQVTVSSASHHHHHH	Abs 630	0.39
IL10R binding molecule of SEQ ID NO: 300 (bispecific antibody) QVQLQESGGGSVQAGGSLRLSCAASGYSNCSYDMTWYRQAPGKEREFVSAIHSDGSTRYADSVKGRFFISQDNAKNTVYLQMNSLKPEDTAMYYCKTDPLHCRAHGGSWYSVRANYWGQGTQVTVSSGGGSQVQLQESGGGSVQAGGSLRLSCAASRYTYNSYCMGWFRQAPGKEREGVATIDSDGMTRYADSVKGRFTISKDNAKNTLYLQMNSLKPEDTAMYYCAADADCTIAAMTTNPLGQGTQVTVSSASHHHHHH	Abs 630	2.11
IL10R binding molecule of SEQ ID NO: 276 (bispecific antibody) QVQLQESGGGSVQAGGSLRLSCAASGYTYSMYCMGWFRQAPGKEREGVAQINSDGSTSYADSVKGRFTISKDNAKNTLYLQMNSLKPEDTAMYYCAADSRVYGGSWYERLCGPYTYEYNYWGQGTQVTVSSGGGSQVQLQESGGGSVQTGGSLRLSCAASGYTYLRGCMGWFRQAPGKEREGVAVMDVVGDRRSYIDSVKGRFTISRDNAANSVYLQMDNLKPEDTAMYYCTAGPNCVGWRSGLDYWGQGTQVTVSSASHHHHHH	Abs 630	0.36
